Tested on: K562
Assay: Anticancer activity against human K562 cells incubated for 72 hrs by MTT assay
Assay type: functional, cell-based
Conditions: K562, 72 h
result.type: pIC50
Scale: pIC50 equals -log10([C]), with [C] in mol/L.

Kindly note the recorded pIC50 for CCc1c2c(nc3ccc(OC(=O)NC(CC(C)C)C(=O)O)cc13)-c1cc3c(c(=O)n1C2)COC(=O)[C@]3(O)CC (stereo partly specified) , which is 5.79

* * *

Test system: A549
Assay: Cytotoxicity against human A549 cells incubated for 48 hrs by MTT assay
Type: functional, cell-based
Settings: A549, 48 h
result.type: IC50 (µM)
Report the value in µM with no unit label.

Kindly note the recorded IC50 for CCc1c2c(nc3ccc(OCc4cn(C(COC(CO)CO)COC(CO)CO)nn4)cc13)-c1cc3c(c(=O)n1C2)COC(=O)[C@@]3(O)CC , which is 23

* * *

Test system: SK-OV-3
Assay: Anticancer activity against human SK-OV-3 cells incubated for 72 hrs by MTT assay
Type: functional, cell-based
Settings: SK-OV-3, 72 h
result.type: IC50 (nM)
Report the value in nM with no unit label.

Kindly note the recorded IC50 for CCc1c2c(nc3ccc(OC(=O)NC(CC(C)C)C(=O)O)cc13)-c1cc3c(c(=O)n1C2)COC(=O)[C@]3(O)CC (stereo partly specified) , which is 1

* * *

Test system: HT-29
Assay: Anticancer activity against human HT-29 cells incubated for 48 hrs by MTT assay
Assay type: functional, cell-based
Conditions: HT-29, 48 h
result.type: pIC50
Scale: pIC50 equals -log10([C]), with [C] in mol/L.

HT-29 assay, compound CC[C@@]1(O)C(=O)OCc2c1cc1n(c2=O)Cc2cc3cc(OCC(=O)OC(C)(C)C)ccc3nc2-1 , recorded pIC50 = 7.15
